# studyTarget: tankyrase 1 (Homo sapiens, UniProt O95271)
# Construct: purchased Trevigen 4700-096-K
# measurementDescription: Analysis of activity of tankyrase 1 (Trevigen kit, ELISA absorbance at 450 nm)
# Format: biochemical
pIC50: −log10 of the molar value.
assayReadout: pIC50

COCCOc1cc(F)c(N2CCN(c3nc4c(nnn4C)c(=O)[nH]3)CC2)c(F)c1; 7.52

P. Cn1nnc2c(=O)[nH]c(N3CCN(c4c(F)cc(OC5COC5)cc4F)CC3)nc21
Q. Cn1nnc2c(=O)[nH]c(N3CCN(c4c(F)cc(F)cc4F)CC3)nc21
R. Cn1nnc2c(=O)[nH]c(N3CCN(c4c(F)cccc4F)CC3)nc21
Order the records so the highest pIC50 appears first and the lowest last. // list labels; follow requested order
R, P, Q
(R: 8.05, P: 7.61, Q: 7.30)

###

# studyTarget: tankyrase 1 (Homo sapiens, UniProt O95271)
# Construct: purchased Trevigen 4700-096-K
# Sequence (O95271 1-1327): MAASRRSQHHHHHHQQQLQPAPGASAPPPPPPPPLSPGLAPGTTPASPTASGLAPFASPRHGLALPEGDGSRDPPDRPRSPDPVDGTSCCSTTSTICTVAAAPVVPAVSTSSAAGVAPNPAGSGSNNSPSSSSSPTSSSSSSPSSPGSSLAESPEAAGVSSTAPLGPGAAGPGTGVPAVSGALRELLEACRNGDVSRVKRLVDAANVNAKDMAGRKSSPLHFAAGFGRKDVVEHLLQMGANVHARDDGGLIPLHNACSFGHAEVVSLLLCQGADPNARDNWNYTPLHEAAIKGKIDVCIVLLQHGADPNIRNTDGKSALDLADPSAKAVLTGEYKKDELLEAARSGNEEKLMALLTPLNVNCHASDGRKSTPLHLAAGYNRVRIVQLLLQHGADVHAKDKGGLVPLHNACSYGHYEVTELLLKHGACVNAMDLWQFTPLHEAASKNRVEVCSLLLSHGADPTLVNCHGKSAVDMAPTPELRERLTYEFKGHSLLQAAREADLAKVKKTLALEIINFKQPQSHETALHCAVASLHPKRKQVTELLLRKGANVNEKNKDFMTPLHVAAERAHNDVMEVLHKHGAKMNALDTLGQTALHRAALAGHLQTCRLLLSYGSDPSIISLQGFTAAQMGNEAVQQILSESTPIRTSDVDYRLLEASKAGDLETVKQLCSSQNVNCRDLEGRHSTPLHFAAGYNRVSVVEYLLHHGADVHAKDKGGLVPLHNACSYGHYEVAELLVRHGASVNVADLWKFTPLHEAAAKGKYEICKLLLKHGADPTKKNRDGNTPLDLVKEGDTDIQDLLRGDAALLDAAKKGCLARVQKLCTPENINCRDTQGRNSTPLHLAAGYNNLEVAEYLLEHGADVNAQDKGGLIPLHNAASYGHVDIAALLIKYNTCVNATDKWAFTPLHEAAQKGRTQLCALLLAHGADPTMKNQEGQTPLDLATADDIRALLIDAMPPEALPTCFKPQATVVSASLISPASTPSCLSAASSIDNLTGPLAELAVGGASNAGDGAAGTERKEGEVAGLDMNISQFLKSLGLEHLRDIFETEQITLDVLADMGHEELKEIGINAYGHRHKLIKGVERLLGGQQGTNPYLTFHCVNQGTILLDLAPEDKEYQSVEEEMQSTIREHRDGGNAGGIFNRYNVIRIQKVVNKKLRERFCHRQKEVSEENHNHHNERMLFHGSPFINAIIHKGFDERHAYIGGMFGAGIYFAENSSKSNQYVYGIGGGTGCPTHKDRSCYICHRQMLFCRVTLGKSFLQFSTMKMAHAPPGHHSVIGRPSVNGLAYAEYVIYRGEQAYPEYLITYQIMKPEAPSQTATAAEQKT
# measurementDescription: Analysis of activity of tankyrase 1 (Trevigen kit, ELISA absorbance at 450 nm)
# Type: biochemical
# assaySetup: tankyrase 1 enzyme, Trevigen kit Cat. No. 4700-096-K, 30 min at rt; read-out: TNKS1 (IC50)
assayReadout: IC50 (µM)

Cn1nnc2c(=O)[nH]c(N3CCN(c4c(F)cc(OCCN5CCOCC5)cc4F)CC3)cc21; 0.011
Cn1nnc2c(=O)[nH]c(N3CCN(c4c(F)cc(OCCN5CCC(C)(O)CC5)cc4F)CC3)nc21; 0.0509
COCCOc1cc(F)c(C2CCN(c3nc4c(nnn4C)c(=O)[nH]3)CC2)c(F)c1; 0.0376

I. COCCN(CCOC)c1cc(F)c(N2CCN(c3nc4c(nnn4C)c(=O)[nH]3)CC2)c(F)c1
II. Cn1nnc2c(=O)[nH]c(N3CCN(c4c(F)cc(OCCN5CCCCC5)cc4F)CC3)nc21
III. CN1CCN(CCOc2cc(F)c(N3CCN(c4nc5c(nnn5C)c(=O)[nH]4)CC3)c(F)c2)C(=O)C1
List by increasing IC50. // list labels; follow requested order
II, III, I
(II: 0.0142 µM, III: 0.043 µM, I: 0.0677 µM)

P. Cn1nnc2c(=O)[nH]c(N3CCN(c4c(F)cc(OCC(O)CO)cc4F)CC3)cc21 (centres unmarked)
Q. COCCOc1cc(F)c(C2(O)CCN(c3nc4c(nnn4C)c(=O)[nH]3)CC2)c(F)c1
Select one. Lower IC50: P or Q # answer = label of selected item
P
(P: 0.016 µM, Q: 0.0331 µM)
